The origin of these recorded values is patent US20260132197A1.

# SYSTEM_UNDER_TEST: T1, Human CD47-C33G (human, UniProt Q08722 19-135)
# T1 construct: also called CD47 mutein with C33G mutation
# EXPERIMENT: SPR, IgG captured, CD47 in flow; exp 2;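 also: IgG from HEK293 cell supernatants tested by SPR on a BIAcore T200, C33G mutein prevents IgV homodimers for monovalent affinity, KD derived from association and dissociation rates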
Catalogue of kon readings, one per entry.
Report the figure in M⁻¹ s⁻¹ without appending any unit label.

[[record]]
binder = "108VH5.M15 / 108VL1.M5 (antibody, human IgG4 S228P, kappa, V domains shown, Full-length IgG4 (S228P), kappa; also called VH5.M15 VL1.M5) VH: EVQLVQSGAEVKKPGASVKVSCKASGYTFTHHWIHWVRQAPGQGLEWMGMIDASDSSTRYAQKFQGRVTMTRDTSTSTVYMELSSLRSEDTAVYYCARLGRYYFDYWGQGTLVTVSS VL: EIVLTQSPATLSLSPGERATLSCRASQSVSSYLAWYQQKPGQAPRLLIYGASNRATGIPARFSGSGSGTDFTLTISSLEPEDFAVYYCGESYGHLYTFGGGTKVEIKR"
observed_result = 160000


Consider the record given below.
What the record says about 108VH5.M11 / 108VL1.M5 (antibody, human IgG4 S228P, kappa, V domains shown, Full-length IgG4 (S228P), kappa; also called VH5.M11 VL1.M5) VH: EVQLVQSGAEVKKPGASVKVSCKASGYTFTHHYIHWVRQAPGQGLEWMGMIDASDSETRYAQKFQGRVTMTRDTSTSTVYMELSSLRSEDTAVYYCARLGRYYFDYWGQGTLVTVSS VL: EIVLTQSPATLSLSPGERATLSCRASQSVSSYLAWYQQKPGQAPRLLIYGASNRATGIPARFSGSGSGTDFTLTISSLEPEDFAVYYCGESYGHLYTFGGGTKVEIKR : kon is 190000
